- tested_system: RAF proto-oncogene serine/threonine-protein kinase (Homo sapiens, UniProt P04049)
- Sequence (P04049 whole entry): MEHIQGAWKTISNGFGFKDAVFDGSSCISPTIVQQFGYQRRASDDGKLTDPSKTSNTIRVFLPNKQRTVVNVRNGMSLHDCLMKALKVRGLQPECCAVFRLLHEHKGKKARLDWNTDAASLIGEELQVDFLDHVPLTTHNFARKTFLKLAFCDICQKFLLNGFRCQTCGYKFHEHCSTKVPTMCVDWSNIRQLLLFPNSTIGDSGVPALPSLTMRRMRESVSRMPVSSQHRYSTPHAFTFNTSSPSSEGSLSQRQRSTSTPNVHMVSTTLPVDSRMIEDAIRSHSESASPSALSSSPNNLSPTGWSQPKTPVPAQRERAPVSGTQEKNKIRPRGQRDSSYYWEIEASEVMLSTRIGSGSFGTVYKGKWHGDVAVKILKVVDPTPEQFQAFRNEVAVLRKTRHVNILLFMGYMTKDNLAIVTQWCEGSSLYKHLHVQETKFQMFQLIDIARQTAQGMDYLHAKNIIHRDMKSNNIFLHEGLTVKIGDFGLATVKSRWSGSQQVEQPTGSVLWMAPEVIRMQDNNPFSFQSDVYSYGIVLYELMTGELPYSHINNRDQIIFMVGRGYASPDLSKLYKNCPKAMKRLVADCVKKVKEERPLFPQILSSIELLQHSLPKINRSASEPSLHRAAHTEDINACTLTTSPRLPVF
quantity_name: IC50 (nM)
Return type: number; implicit unit nM.

Ask: Param readout= IC50; system= RAF proto-oncogene serine/threonine-protein kinase (Homo sapiens, UniProt P04049); entry= `O=C(NCCNc1nccc(-c2c(-c3cccc(O)c3)nc3sccn23)n1)c1ccccc1` ; returns value.
Reply: 8.2
